Molecular target: T1, S15-extra cellular domain (ECD) monomer (human, UniProt Q6ZMC9 20-263)
T1 construct: also called S15 monomer protein
T1 sequence: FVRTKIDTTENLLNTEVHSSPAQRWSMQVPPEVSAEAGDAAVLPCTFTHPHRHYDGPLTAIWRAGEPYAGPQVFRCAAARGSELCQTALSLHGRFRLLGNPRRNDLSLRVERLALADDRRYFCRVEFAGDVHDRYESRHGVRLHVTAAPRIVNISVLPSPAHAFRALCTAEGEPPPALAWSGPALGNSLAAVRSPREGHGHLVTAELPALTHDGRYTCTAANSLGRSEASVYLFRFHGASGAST
Assay: BLI (Octet RED96), mAb on anti-human Fc sensors, S15-ECD monomer in solution, global fit
Each entry below lists one item and its recorded pKd value.
Scale explanation: pKd corresponds to minus log10 of a concentration expressed in moles per litre.

Please review the entries below; each comes with its answer.
binder="1B2 (antibody, V domains shown, Mouse anti-human Siglec-15 mAb) VH: EVQLVESGGGFVKPGGSLKLSCAASGFTFSDYGMHWVRQAPEKGLEWVAYISSGSSIIYYADTVKGRFTISRDNAKNTLFLQMTSLRSEDTAMYYCARDHYHGNGSDYWGQGTTLTVSS VL: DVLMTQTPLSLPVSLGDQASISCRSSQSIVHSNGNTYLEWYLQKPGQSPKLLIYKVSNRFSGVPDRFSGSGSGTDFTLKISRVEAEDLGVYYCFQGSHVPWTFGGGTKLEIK" reported_value=8.36
binder="80A (antibody, V domains shown, Mouse anti-human Siglec-15 mAb; also called NC80) VH: QVQLKQSGAELVRPGASVKLSCRASGYTFTDFYINWVKQRPGQGLEWIARIYPGSDETYYNEKFKDKVTLTAEKSSSTAYMQLSSLTSEDSAVYFCALWFFDVWGTGTTVTVSS VL: DIVMTQSPSSLTVTAGEKVTMSCKSNQSLLNSGDQKNYLTWYQQKPGQPPKLLIYWASTRESGVPDRFTGSGSGTDFTLTISSVQAEDLAIYYCQNDYSYPLTFGAGTKLELK" reported_value=9.30
binder="92A (antibody, V domains shown, Mouse anti-human Siglec-15 mAb; also called NC92) VH: DVQLQESGPGLVKFSQSLSLTCSVTGYSITSGYYWNWIRQFPGNKLEWMGYIRHDGSNNYNPSLKNRISITRDTSKNQFFLKLNSVITEDTATYYCVREIYDGSSGYFDVWGTGTTVTVSS VL: QIVLTQSPAIMSASLGEEITLICSASSSVSYMHWYQQKSGTSPKLLIYRTSNLASGVPSRFSGSGSGTFYSLTISSVEAEDAADYYCHQWSSWTFGGGTQLEIK" reported_value=8.85
binder="1C3 (antibody, V domains shown, Mouse anti-human Siglec-15 mAb) VH: QVQLKQSGAELVKPGASVKISCKASGYIFTDYYVNWVKQRPGQGLEWIGKIGPGSVSIYYNEKFKGKATLTADKSSSTAYMQLSSLTSEDSAVYFCASYYYGFAYWGQGTLVTVSA VL: DIVMTQAAPSVPVTPGESVSISCRSSKSLLHSNGNTYLYWFLQRPGQSPQLLIYRMSNLASGVPDRFGGSGSGTAFTLRISRVEAEDVGFYYCMQHLEYPYTFGGGTRLEIK" reported_value=9.24

Consider now this further binder.
Noted for 93B (antibody, V domains shown, Mouse anti-human Siglec-15 mAb; also called NC93) VH: QVQLKQSGAELVRPGASVKLSCKASGYTFTDYYINWVKQRPGQGLEWIARIYPGNGNTDYNEKFKDKATLTAEKSSTTAYIQLSSLTSEDSAVYFCCLWYFDVWGTGTTVTVSS VL: DIVMTQSPSSLTVTAGEKVTMSCKSSQSLLNSGNQKNYLTWYQQKPGQPPKLLIYWASTRESGVPDRFTGSGSGTDFTLTISNVQPEDLAVYYCQNDYSFPFTFGSGTELEMK : its pKd reads 9.06
